# Test system: Shigella flexneri
# protocol_details: Compound was tested for antibacterial activity against Shigella flexneri
# Type: functional
Listed here are compounds together with their documented MIC.

Examples with their reported MIC follow.
smiles=CC(C)[C@H](N)C(=O)N[C@@H](CCl)C(=O)O reported="> 100 µg/mL"
smiles=CC[C@H](N)C(=O)N[C@@H](CCl)C(=O)O reported="1.56 µg/mL"
smiles=N[C@@H](CCl)C(=O)N[C@@H](CCl)C(=O)O reported="3.25 µg/mL"
smiles=NCCC(=O)N[C@@H](CCl)C(=O)O reported="> 100 µg/mL"
smiles=O=C(O)[C@H](CCl)NC(=O)[C@@H]1CCCN1 reported="> 100 µg/mL"

Lab note: next compound to report on.
Q: Would you kindly share the measured MIC for CC(C)[C@H](N)C(=O)N[C@@H](C)C(=O)N[C@@H](CCl)C(=O)O ?
Ans: > 100 µg/mL

====

# Tested on: Staphylococcus epidermidis
# protocol_details: Compound was tested for antibacterial activity against Staphylococcus epidermidis
# Assay type: functional
recorded_endpoint: MIC (µg/mL)

smiles=NCC(=O)N[C@@H](CCl)C(=O)O target_desc="Staphylococcus epidermidis" reported=0.05
smiles=CC[C@H](C)[C@H](N)C(=O)N[C@@H](CCl)C(=O)O target_desc="Staphylococcus epidermidis" reported=0.05
smiles=CSCC[C@H](N)C(=O)N[C@@H](CCl)C(=O)N[C@@H](CCl)C(=O)O target_desc="Staphylococcus epidermidis" reported=0.0125
smiles=CSCC[C@H](N)C(=O)N[C@@H](C)C(=O)N[C@@H](CCl)C(=O)O target_desc="Staphylococcus epidermidis" reported=0.025
smiles=C[C@H](N)C(=O)N[C@@H](C)C(=O)N[C@@H](CCl)C(=O)O target_desc="Staphylococcus epidermidis" reported=0.025

a: NC(=O)CC[C@H](N)C(=O)N[C@@H](CCl)C(=O)O
b: CCCC[C@H](N)C(=O)N[C@@H](CCl)C(=O)O
c: O=C(O)[C@H](CCl)NC(=O)[C@@H]1CCCN1
d: NCCC(=O)N[C@@H](CCl)C(=O)O
e: CC[C@H](N)C(=O)N[C@@H](CCl)C(=O)O
Q: Thanks in advance: please rank these 5 entries by MIC, highest to lowest. Please reply with the labels ordered as requested. Many thanks.
Ans: d, c, a, e, b

a: N[C@@H](Cc1ccccc1)C(=O)N[C@@H](CCl)C(=O)O
b: CC(C)C[C@H](N)C(=O)N[C@@H](CCl)C(=O)O
c: CC(C)[C@H](N)C(=O)N[C@@H](C)C(=O)N[C@@H](CCl)C(=O)O
d: CN[C@@H](C)C(=O)N[C@@H](CCl)C(=O)O
Q: Thanks in advance: please rank these 4 entries by MIC, highest to lowest. Please reply with the labels ordered as requested. Many thanks.
Ans: d, a, c, b

====

# System: Shigella flexneri
# protocol_details: Compound was tested for antibacterial activity against Shigella flexneri
# Assay type: functional
recorded_endpoint: MIC (µg/mL)

P: CN[C@@H](C)C(=O)N[C@@H](CCl)C(=O)O
Q: CSCC[C@H](N)C(=O)N[C@@H](CCl)C(=O)N[C@@H](CCl)C(=O)O
Q: Two entries are listed, P and Q . Which one carries the higher MIC? Response format: the label of the selected entry.
Ans: P

Attribution: ChEMBL document CHEMBL1123250
